Readings of EC50 for the listed molecules
target: Peptidyl-prolyl cis-trans isomerase FKBP1A (Homo sapiens, UniProt P62942); experiment: Effective concentration determined was towards FK506 binding protein 12 by competitive binding assay using [3H]-dihydro FK-506 as radioligand
Sequence (P62942 whole entry): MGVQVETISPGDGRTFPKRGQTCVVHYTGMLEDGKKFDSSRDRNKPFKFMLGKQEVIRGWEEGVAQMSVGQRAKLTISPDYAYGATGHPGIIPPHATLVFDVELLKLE

- structure: "CC[C@@H]1/C=C(\\C)C[C@H](C)C[C@H](OC)[C@H]2O[C@@](O)(C(=O)C(=O)N3CCCC[C@H]3C(=O)O[C@H](/C(C)=C/[C@@H]3CC[C@@H](OCc4ccccc4)[C@H](OC)C3)[C@H](C)[C@@H](O)CC1=O)[C@H](C)C[C@@H]2OC"
  EC50 (nM): 5.3
- structure: "CC[C@@H]1/C=C(\\C)C[C@H](C)C[C@H](OC)[C@H]2O[C@@](O)(C(=O)C(=O)N3CCCC[C@H]3C(=O)O[C@H](/C(C)=C/[C@@H]3CC[C@@H](OCCCc4ccccc4)[C@H](OC)C3)[C@H](C)[C@@H](O)CC1=O)[C@H](C)C[C@@H]2OC"
  EC50 (nM): 32
- structure: "CC[C@@H]1/C=C(\\C)C[C@H](C)C[C@H](OC)[C@H]2O[C@@](O)(C(=O)C(=O)N3CCCC[C@H]3C(=O)O[C@H](/C(C)=C/[C@@H]3CC[C@@H](OCCc4ccccc4)[C@H](OC)C3)[C@H](C)[C@@H](O)CC1=O)[C@H](C)C[C@@H]2OC"
  EC50 (nM): 9.2
- structure: "CC[C@@H]1/C=C(\\C)C[C@H](C)C[C@H](OC)[C@H]2O[C@@](O)(C(=O)C(=O)N3CCCC[C@H]3C(=O)O[C@H](/C(C)=C/[C@@H]3CC[C@@H](Oc4ccccc4)[C@H](OC)C3)[C@H](C)[C@@H](O)CC1=O)[C@H](C)C[C@@H]2OC"
  EC50 (nM): 12
